Exercise: for every item that follows, state its recorded pIC50.
Target: Recombinant STAT3 protein (STAT3(G127-I722)) (Homo sapiens)
Construct: STAT3(G127-I722)
Experiment: STAT3 Fluorescence Polarization (FP) Assay
Conditions: STAT3(G127-I722) 25 nM, probe 5-FAM-GpYLPQTV-NH2 2 nM, 45-minute incubation
pIC50: −log10 of the molar value.

// known answers, use as guide
O=C(N[C@H]1C[C@H]2C[C@H]2C[C@H]2CC[C@@H](C(=O)N[C@H]3CN(c4cccnc4)C[C@@H]3F)N2C1=O)c1cc2cc(C(F)P(=O)(O)O)ccc2s1 (some centres unmarked) ... > 7.00
C[C@@]12C[C@H]3CC[C@@H](C(=O)N4CC(c5cccnc5)C4)N3C(=O)[C@@H](NC(=O)c3cc4cc(C(F)(F)P(=O)(O)O)ccc4s3)C[C@@H]1C2 ... > 7.00

// batch mode: one pIC50 value per listed entry
1. NC(=O)Cc1cc(-c2ccccc2)ccc1NC(=O)[C@@H]1CC[C@@H]2C[C@H]3C[C@H]3C[C@H](NC(=O)c3cc4cc(C(F)(F)P(=O)(O)O)ccc4s3)C(=O)N21
2. COc1ccncc1C1CN(C(=O)[C@@H]2CC[C@@H]3C[C@@H]4C[C@@H]4C[C@H](NC(=O)c4cc5cc([C@@H](F)P(=O)(O)O)ccc5s4)C(=O)N32)C1 (single isomer, unassigned)
3. O=C(N[C@H]1C[C@@H]2C[C@@H]2C[C@H]2CC[C@@H](C(=O)N3CCN(C(=O)[C@H]4CCOC4)CC3)N2C1=O)c1cc2cc(C(F)(F)P(=O)(O)O)ccc2s1

Result block:
1: > 7.00; 2: > 7.00; 3: 6.00 to 7.00

---

Target: Recombinant STAT6 protein (STAT6(W123-T658)) (Homo sapiens, UniProt P42226)
Construct: STAT6(W123-T658)
Sequence (P42226 123-658): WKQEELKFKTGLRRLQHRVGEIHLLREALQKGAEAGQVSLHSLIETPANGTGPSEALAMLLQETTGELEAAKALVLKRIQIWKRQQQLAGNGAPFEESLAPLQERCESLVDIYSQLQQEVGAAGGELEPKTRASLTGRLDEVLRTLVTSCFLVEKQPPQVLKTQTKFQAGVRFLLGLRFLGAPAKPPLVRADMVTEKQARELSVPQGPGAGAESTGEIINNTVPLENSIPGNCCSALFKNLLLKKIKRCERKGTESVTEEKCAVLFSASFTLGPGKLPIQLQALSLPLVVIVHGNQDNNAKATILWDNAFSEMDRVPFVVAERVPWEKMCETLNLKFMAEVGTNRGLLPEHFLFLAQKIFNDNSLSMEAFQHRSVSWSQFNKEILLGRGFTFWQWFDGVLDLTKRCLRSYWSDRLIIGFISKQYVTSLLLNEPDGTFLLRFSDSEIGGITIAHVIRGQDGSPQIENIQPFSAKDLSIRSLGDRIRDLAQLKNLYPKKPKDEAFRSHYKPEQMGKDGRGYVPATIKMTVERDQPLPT
Assay: STAT6 Fluorescence Polarization (FP) Assay
Settings: STAT6(W123-T658) 250 nM, probe 5-FAM-ApYKPFQDLI-NH2 2 nM, 45-minute incubation
measurement_name: IC50

Working through the 4 compounds below one at a time, give IC50 for each.
1. CCc1ccncc1C1CN(C(=O)[C@@H]2CC[C@@H]3C[C@H]4C[C@H]4C[C@H](NC(=O)c4cc5cc(C(F)P(=O)(O)O)ccc5s4)C(=O)N32)C1 (some centres unmarked) [Example 266]
2. CC(=O)N1CC2C1CCN2C(=O)[C@@H]1CC[C@@H]2C[C@H]3C[C@H]3C[C@H](NC(=O)c3cc4cc(C(F)(F)P(=O)(O)O)ccc4s3)C(=O)N21 (some centres unmarked) [Example 258]
3. Cc1nc(N2C[C@H](NC(=O)[C@@H]3CC[C@@H]4C[C@H]5C[C@H]5C[C@H](NC(=O)c5cc6cc(C(F)P(=O)(O)O)ccc6s5)C(=O)N43)[C@@H](F)C2)n[nH]1 (some centres unmarked) [Example 366]
4. Cn1cnnc1C1CN(C(=O)[C@@H]2CC[C@@H]3C[C@H]4C[C@H]4C[C@H](NC(=O)c4cc5cc(C(F)P(=O)(O)O)ccc5s4)C(=O)N32)C1 (some centres unmarked) [Example 304]

Result block:
1: 3 to 30 µM; 2: 0.3 to 3 µM; 3: 3 to 30 µM; 4: 3 to 30 µM

Notebook: CN1CCN(c2ccncc2C2CN(C(=O)[C@@H]3CC[C@@H]4C[C@H]5C[C@H]5C[C@H](NC(=O)c5cc6cc([C@H](F)P(=O)(O)O)ccc6s5)C(=O)N43)C2)CC1 (single isomer, unassigned) [Example 403] , IC50 read as 3 to 30 µM

---

Target: pSTAT3 (pY705-STAT3) (Homo sapiens)
Construct: host or cells: cryopreserved PBMC
Sequence (P40763 whole entry): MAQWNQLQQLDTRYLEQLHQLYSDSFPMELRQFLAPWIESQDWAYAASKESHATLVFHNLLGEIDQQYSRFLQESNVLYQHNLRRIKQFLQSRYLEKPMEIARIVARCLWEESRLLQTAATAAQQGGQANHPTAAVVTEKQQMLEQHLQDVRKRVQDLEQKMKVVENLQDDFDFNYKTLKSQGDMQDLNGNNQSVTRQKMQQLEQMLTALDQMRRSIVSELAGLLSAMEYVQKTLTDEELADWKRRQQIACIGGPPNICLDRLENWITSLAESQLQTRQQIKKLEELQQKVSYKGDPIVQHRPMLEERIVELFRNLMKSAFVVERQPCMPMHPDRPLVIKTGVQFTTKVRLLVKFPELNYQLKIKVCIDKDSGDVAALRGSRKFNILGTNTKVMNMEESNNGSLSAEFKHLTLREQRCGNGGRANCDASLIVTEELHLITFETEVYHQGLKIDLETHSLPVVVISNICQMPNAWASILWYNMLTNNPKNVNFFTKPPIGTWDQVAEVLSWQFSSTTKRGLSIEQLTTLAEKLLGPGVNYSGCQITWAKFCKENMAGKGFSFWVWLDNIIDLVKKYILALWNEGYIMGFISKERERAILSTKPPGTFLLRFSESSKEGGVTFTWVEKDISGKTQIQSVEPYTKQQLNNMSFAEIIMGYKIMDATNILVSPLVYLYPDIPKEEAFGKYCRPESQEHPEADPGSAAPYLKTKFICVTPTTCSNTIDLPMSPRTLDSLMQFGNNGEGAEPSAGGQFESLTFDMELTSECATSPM
Experiment: MSD-pSTAT-PBMC Assay (pSTAT3, IL-6 stimulated)
Format: cell-based
Conditions: PBMC, compound 3 hrs, then 10 ng/mL IL-6 for 10 min; MSD pY705-STAT3; read-out: pSTAT3
pIC50: −log10 of the molar value.
measurement_name: pIC50

CC(=O)N1C[C@@H](F)[C@@H](NC(=O)[C@@H]2CC[C@@H]3C[C@@H]4C[C@@H]4C[C@H](NC(=O)c4cc5cc(C(F)(F)P(=O)(OCCSC(=O)CC(C)C)OCCSC(=O)CC(C)C)ccc5s4)C(=O)N32)C1 ... > 7.00

Hey, can you go through the list below and give me pIC50 for every item?
1. CC(C)OC(=O)CNP(=O)(Oc1ccccc1)C(F)(F)c1ccc2sc(C(=O)N[C@H]3C[C@@H]4C[C@@H]4C[C@H]4CC[C@@H](C(=O)N5CC(C(=O)N6CCOCC6)C5)N4C3=O)cc2c1 (stereo partly drawn)
2. O=C(OCOP(=O)(Cc1ccc2sc(C(=O)N[C@H]3C[C@@H]4C[C@@H]4C[C@H]4CC[C@@H](C(=O)N5CC(C(=O)N6CCOCC6)C5)N4C3=O)cc2c1)OCOC(=O)OC1CCOCC1)OC1CCOCC1
3. CC(C)OC(=O)OCOP(=O)(Cc1ccc2sc(C(=O)N[C@H]3C[C@@H]4C[C@@H]4C[C@H]4CC[C@@H](C(=O)N5CC(n6ccnc6)C5)N4C3=O)cc2c1)OCOC(=O)OC(C)C
4. CCCC(=O)SCCOP(=O)(OCCSC(=O)CCC)C(F)(F)c1ccc2sc(C(=O)N[C@H]3C[C@@H]4C[C@@H]4C[C@H]4CC[C@@H](C(=O)N5CC(C(=O)N6CCOCC6)C5)N4C3=O)cc2c1
5. CC(C)(C)C(=O)SCCOP(=O)(OCCSC(=O)C(C)(C)C)C(F)(F)c1ccc2sc(C(=O)N[C@H]3C[C@@H]4C[C@@H]4C[C@H]4CC[C@@H](C(=O)N5CC(C(=O)N6CCOCC6)C5)N4C3=O)cc2c1
6. CC(C)(C)C(=O)OCOP(=O)(Cc1ccc2sc(C(=O)N[C@H]3C[C@H]4C[C@H]4C[C@H]4CC[C@@H](C(=O)N5CC(c6ccccn6)C5)N4C3=O)cc2c1)OCOC(=O)C(C)(C)C

Result block:
["< 5.52", "< 5.52", "> 7.00", "> 7.00", "> 7.00", "> 7.00"]

# map each compound to its pIC50
1. CC(C)(C)C(=O)SCCOP(=O)(OCCSC(=O)C(C)(C)C)C(F)(F)c1ccc2ccc(C(=O)N[C@H]3C[C@@H]4C[C@@H]4C[C@H]4CC[C@@H](C(=O)N5CC(n6ccnc6)C5)N4C3=O)cc2c1
2. CC(C)(C)C(=O)SCCOP(=O)(Oc1ccccc1)C(F)(F)c1ccc2sc(C(=O)N[C@H]3C[C@H]4C[C@H]4C[C@H]4CC[C@@H](C(=O)N5CC(n6ccnc6)C5)N4C3=O)cc2c1 (stereo partly drawn)

Result block:
1: > 7.00; 2: 6.00 to 7.00

---

Biological target: Recombinant STAT3 protein (STAT3(G127-I722)) (Homo sapiens)
Construct: STAT3(G127-I722)
Test: STAT3 Fluorescence Polarization (FP) Assay
Settings: STAT3(G127-I722) 25 nM, probe 5-FAM-GpYLPQTV-NH2 2 nM, 45-minute incubation
pIC50: −log10 of the molar value.
measurement_name: pIC50

O=C(N[C@H]1C[C@H]2C[C@H]2C[C@H]2CC[C@@H](C(=O)N3CC(c4cnccc4F)C3)N2C1=O)c1cc2cc(CP(=O)(O)O)ccc2s1 [Example 250] ... > 7.00
N#CC1(c2ccccn2)CN(C(=O)[C@@H]2CC[C@@H]3C[C@H]4C[C@H]4C[C@H](NC(=O)c4cc5cc(C(F)(F)P(=O)(O)O)ccc5s4)C(=O)N32)C1 [Compound 89] ... > 7.00
O=C(N[C@H]1C[C@@H]2C[C@@H]2C[C@H]2CC[C@@H](C(=O)NC3CN([C@H]4CCOC4)C3)N2C1=O)c1cc2cc(C(F)(F)P(=O)(O)O)ccc2s1 [Compound 57] ... 6.00 to 7.00
O=C(N[C@H]1C[C@@H]2C[C@@H]2C[C@H]2CC[C@@H](C(=O)N3CCN(C(=O)c4cn[nH]c4)CC3)N2C1=O)c1cc2cc(C(F)(F)P(=O)(O)O)ccc2s1 [Compound 104] ... > 7.00
O=C(N[C@H]1C[C@@H]2C[C@@H]2C[C@H]2CC[C@@H](C(=O)N3CC(N4CCOCC4)C3)N2C1=O)c1cc2cc(C(F)(F)P(=O)(O)O)ccc2s1 [Compound 91] ... 6.00 to 7.00

For every item below, please supply its pIC50.
1. N#C[C@@H]1CN(C(=O)[C@@H]2CC[C@@H]3C[C@@H]4C[C@@H]4C[C@H](NC(=O)c4cc5cc(C(F)(F)P(=O)(O)O)ccc5s4)C(=O)N32)C[C@H]1c1ccccc1 (relative stereo) [Compound 11]
2. O=C(N[C@H]1C[C@@H]2C[C@@H]2C[C@H]2CC[C@@H](C(=O)N3CC(n4ccnc4)C3)N2C1=O)c1cc2cc(C(F)(F)P(=O)(O)O)ccc2s1 [Compound 94]
3. O=C(N[C@H]1C[C@@H]2C[C@@H]2C[C@H]2CC[C@@H](C(=O)N3CC(c4ncccn4)C3)N2C1=O)c1cc2cc(C(F)P(=O)(O)O)ccc2s1 (some centres unmarked) [Example 305]
4. CCc1ccncc1C1CN(C(=O)[C@@H]2CC[C@@H]3C[C@@H]4C[C@@H]4C[C@H](NC(=O)c4cc5cc(CP(=O)(O)O)ccc5s4)C(=O)N32)C1 [Example 343]
5. O=C(N[C@H]1C[C@@H]2C[C@@H]2C[C@H]2CC[C@@H](C(=O)N3CC4(CC(=O)c5nccn54)C3)N2C1=O)c1cc2cc(C(F)(F)P(=O)(O)O)ccc2s1 [Compound 90]
6. O=C(N[C@H]1C[C@@H]2C[C@@H]2C[C@H]2CC[C@@H](C(=O)N3CC(C(=O)N4CC(c5ccccn5)C4)C3)N2C1=O)c1cc2cc(C(F)(F)P(=O)(O)O)ccc2s1 [Compound 86]

Result block:
["6.00 to 7.00", "> 7.00", "6.00 to 7.00", "> 7.00", "> 7.00", "> 7.00"]
